Below, each entry is listed alongside its reported inhibition of growth at 450 g/ha.
Test system: Abutilon theophrasti
Measurement protocol: Herbicidal activity against two to three-leaf stage Abutilon theophrasti (velvetleaf) assessed as inhibition of plant growth at 450 g/ha in greenhouse by post-emergence herbicidal activity assay
Format: functional
Condition notes: read-out: GI

>  <Compound>
COP(=O)(OC)C(OC(=O)COc1ccc(F)cc1Cl)c1cccs1 (stereo unspecified)

>  <inhibition of growth at 450 g/ha, %>
90

$$$$
>  <Compound>
COP(=O)(OC)C(OC(=O)COc1ccc(Cl)cc1C)c1cccs1 (stereo unspecified)

>  <inhibition of growth at 450 g/ha, %>
90

$$$$
>  <Compound>
COP(=O)(OC)C(OC(=O)COc1ccc(Cl)c(C)c1)c1cccs1 (stereo unspecified)

>  <inhibition of growth at 450 g/ha, %>
60

$$$$
>  <Compound>
COP(=O)(OC)C(C)OC(=O)COc1ccc(Cl)cc1Cl (stereo unspecified) [CLACYFOS]

>  <inhibition of growth at 450 g/ha, %>
100

$$$$
>  <Compound>
COP(=O)(OC)C(OC(=O)COc1ccc(C#N)cc1)c1cccs1 (stereo unspecified)

>  <inhibition of growth at 450 g/ha, %>
40

$$$$
>  <Compound>
COP(=O)(OC)C(OC(=O)COc1ccc(Cl)cc1F)c1cccs1 (stereo unspecified)

>  <inhibition of growth at 450 g/ha, %>
75

$$$$

###

Assay system: Pyruvate dehydrogenase complex (Pisum sativum, UniProt P52902+P52904)
Sequence (P52902 whole entry): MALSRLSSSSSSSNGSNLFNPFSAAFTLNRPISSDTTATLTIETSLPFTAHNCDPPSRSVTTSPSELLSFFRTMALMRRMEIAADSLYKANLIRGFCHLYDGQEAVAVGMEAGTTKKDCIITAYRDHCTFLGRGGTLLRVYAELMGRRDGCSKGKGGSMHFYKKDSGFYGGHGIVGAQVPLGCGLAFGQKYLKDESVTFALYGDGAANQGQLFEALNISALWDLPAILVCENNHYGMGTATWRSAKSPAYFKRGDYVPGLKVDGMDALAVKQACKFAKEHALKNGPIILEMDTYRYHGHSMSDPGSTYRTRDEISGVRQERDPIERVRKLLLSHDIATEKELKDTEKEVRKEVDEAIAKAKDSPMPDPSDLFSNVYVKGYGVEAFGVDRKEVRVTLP
Sequence (P52904 whole entry): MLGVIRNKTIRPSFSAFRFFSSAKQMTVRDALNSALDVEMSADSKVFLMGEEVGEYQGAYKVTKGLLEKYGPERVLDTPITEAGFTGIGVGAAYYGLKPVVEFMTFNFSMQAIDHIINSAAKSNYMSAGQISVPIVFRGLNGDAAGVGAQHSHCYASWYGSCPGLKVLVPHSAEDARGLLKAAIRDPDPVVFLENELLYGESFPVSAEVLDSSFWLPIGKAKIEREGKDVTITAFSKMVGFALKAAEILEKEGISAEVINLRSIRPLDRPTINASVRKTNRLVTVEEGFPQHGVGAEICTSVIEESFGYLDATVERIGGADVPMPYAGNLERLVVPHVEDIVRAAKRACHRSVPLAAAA
Measurement protocol: Inhibition of Pisum sativum (pea) PDHc by spectrophotometric assay
pIC50: −log10 of the molar value.

>  <Compound>
COP(=O)(O)C(C)=O [SODIUM METHYL ACETYLPHOSPHONATE]

>  <Qualifier operator>
=

>  <pIC50>
4.15

$$$$
>  <Compound>
COP(=O)(O)C(O)c1ccco1 (configuration not stated)

>  <Qualifier operator>
<

>  <pIC50>
2.33

$$$$
>  <Compound>
COP(=O)(OC)C(OC(=O)COc1ccc(Cl)cc1Cl)c1ccco1 (configuration not stated)

>  <Qualifier operator>
=

>  <pIC50>
4.55

$$$$
>  <Compound>
COP(=O)(O)C(=O)c1ccco1

>  <Qualifier operator>
=

>  <pIC50>
3.41

$$$$
>  <Compound>
COP(=O)(OC)C(OC(=O)COc1cccc(C(F)(F)F)c1)c1ccccn1 (configuration not stated)

>  <Qualifier operator>
<

>  <pIC50>
2.64

$$$$
>  <Compound>
O=C(O)COc1ccc(Cl)cc1Cl

>  <Qualifier operator>
<

>  <pIC50>
2.34

$$$$
>  <Compound>
COP(=O)([O-])C(OC(=O)COc1ccc(Cl)cc1Cl)c1ccco1.[Na+] (configuration not stated)

>  <Qualifier operator>
=

>  <pIC50>
5.16

$$$$
